Taken from patent US20230035659A1.

Test system: TTR
TEST_NAME: TTR editing in primary human hepatocytes treated with LNP formulated Spy Cas9 mRNA (SEQ ID NO: 2) and sgRNAs, 12.5 ng mRNA
Format: cell-based
MEASUREMENT_PARAMETERS: LNP formulated Spy Cas9 mRNA (SEQ ID NO: 2) and sgRNA, 12.5 ng mRNA, 3.9 nM sgRNA, 72 hours
Strand notation (5' to 3'): a small letter for the sugar, then the base; units joined by * are phosphorothioate-linked, units joined directly phosphodiester-linked; [ ] holds rarer units or linkages, { } end groups; capitals alone tell only the bases. m = 2'-O-methyl; r = 2'-OH (RNA)
Here, each record is paired with measured 12.5 ng mRNA, 3.9 nM sgRNA, Avg % Edit data.
Note: unit % is implicit; provide only the numeric part.

Known 12.5 ng mRNA, 3.9 nM sgRNA, Avg % Edit results, listed for orientation:
[[record]]
molecule = "G000484: TTR sgRNA modified sequence, Human, SEQ ID NO: 91; guide sequence of CR003367 (nucleic acid) guide: mA*mG*mA*rCrArCrCrArArArUrCrUrUrArCrUrGrGrArGrUrUrUrUrArGrAmGmCmUmAmGmAmAmAmUmAmGmCrArArGrUrUrArArArArUrArArGrGrCrUrArGrUrCrCrGrUrUrArUrCrAmAmCmUmUmGmAmAmAmAmAmGmUmGmGmCmAmCmCmGmAmGmUmCmGmGmUmGmCmU*mU*mU*mU"
measurement = 16.67

[[record]]
molecule = "G000572: TTR sgRNA modified sequence, Human, SEQ ID NO: 113; guide sequence of CR003385 (nucleic acid) guide: mC*mC*mC*rCrUrArCrUrCrCrUrArUrUrCrCrArCrCrArGrUrUrUrUrArGrAmGmCmUmAmGmAmAmAmUmAmGmCrArArGrUrUrArArArArUrArArGrGrCrUrArGrUrCrCrGrUrUrArUrCrAmAmCmUmUmGmAmAmAmAmAmGmUmGmGmCmAmCmCmGmAmGmUmCmGmGmUmGmCmU*mU*mU*mU"
measurement = 55.45

[[record]]
molecule = "G000486: TTR sgRNA modified sequence, Human, SEQ ID NO: 93; guide sequence of CR003339 (nucleic acid) guide: mA*mC*mA*rCrArArArUrArCrCrArGrUrCrCrArGrCrArGrUrUrUrUrArGrAmGmCmUmAmGmAmAmAmUmAmGmCrArArGrUrUrArArArArUrArArGrGrCrUrArGrUrCrCrGrUrUrArUrCrAmAmCmUmUmGmAmAmAmAmAmGmUmGmGmCmAmCmCmGmAmGmUmCmGmGmUmGmCmU*mU*mU*mU"
measurement = 61.33

[[record]]
molecule = "G000499: TTR sgRNA modified sequence, Human, SEQ ID NO: 106; guide sequence of CR005303 (nucleic acid) guide: mU*mG*mA*rArUrCrCrArArGrUrGrUrCrCrUrCrUrGrArGrUrUrUrUrArGrAmGmCmUmAmGmAmAmAmUmAmGmCrArArGrUrUrArArArArUrArArGrGrCrUrArGrUrCrCrGrUrUrArUrCrAmAmCmUmUmGmAmAmAmAmAmGmUmGmGmCmAmCmCmGmAmGmUmCmGmGmUmGmCmU*mU*mU*mU"
measurement = 16.07

[[record]]
molecule = "G000491: TTR sgRNA modified sequence, Human, SEQ ID NO: 98; guide sequence of CR003338 (nucleic acid) guide: mA*mU*mA*rCrCrArGrUrCrCrArGrCrArArGrGrCrArGrGrUrUrUrUrArGrAmGmCmUmAmGmAmAmAmUmAmGmCrArArGrUrUrArArArArUrArArGrGrCrUrArGrUrCrCrGrUrUrArUrCrAmAmCmUmUmGmAmAmAmAmAmGmUmGmGmCmAmCmCmGmAmGmUmCmGmGmUmGmCmU*mU*mU*mU"
measurement = 31.60


// switching to the query molecule
Sample G000480: TTR sgRNA modified sequence, Human, SEQ ID NO: 87; guide sequence of CR003353 (nucleic acid) guide: mA*mA*mA*rGrGrCrUrGrCrUrGrArUrGrArCrArCrCrUrGrUrUrUrUrArGrAmGmCmUmAmGmAmAmAmUmAmGmCrArArGrUrUrArArArArUrArArGrGrCrUrArGrUrCrCrGrUrUrArUrCrAmAmCmUmUmGmAmAmAmAmAmGmUmGmGmCmAmCmCmGmAmGmUmCmGmGmUmGmCmU*mU*mU*mU — what was its 12.5 ng mRNA, 3.9 nM sgRNA, Avg % Edit?
59.33
